- Assay text: Pharmacokinetics after intravenous administration of CK in rats (10 mg/kg)
- Type: in vivo, Sprague-Dawley rats
- Measurement parameters: female, Sprague-Dawley, rat, plasma, iv, 10 mg/kg, female rats, i.v. 10 mg/kg, Mean±SD; read-out: t1/2z (converted)
Measure name: half-life (h)

>>> df
                                   molecule  measure_name  unit_symbol  assay_result
0  CC(C)=CCCC(C)(OC1OC(CO)C(O)C(O)C1O)C1CCC2(C)C1C(O)CC1C3(C)CCC(O)C(C)(C)C3CCC12C (stereo not shown) [CK]     half-life            h          2.18

----------
- Assay text: Pharmacokinetics after intravenous administration of CK in rats (10 mg/kg)
- Assay type: in vivo, Sprague-Dawley rats
- Measurement parameters: female, Sprague-Dawley, rat, plasma, iv, 10 mg/kg, female rats, i.v. 10 mg/kg, Mean±SD; read-out: AUC(0-t)
Measure name: AUC(0-t)

                                   compound  measure_name  assay_result
0  CC(C)=CCCC(C)(OC1OC(CO)C(O)C(O)C1O)C1CCC2(C)C1C(O)CC1C3(C)CCC(O)C(C)(C)C3CCC12C (stereo not shown)      AUC(0-t)  4010 ng·h/mL

----------
- Assay text: Pharmacokinetics after oral administration of CK polymorphs in rats (20 mg/kg)
- Assay type: in vivo, Sprague-Dawley rats
- Measurement parameters: female, Sprague-Dawley, rat, plasma, po, 20 mg/kg, female rats, p.o. 20 mg/kg vs i.v. 10 mg/kg, dose-adjusted AUC ratio; read-out: Fabs (absolute bioavailability)
Measure name: bioavailability (%)

                                   compound  assay_result
0  CC(C)=CCCC(C)(OC1OC(CO)C(O)C(O)C1O)C1CCC2(C)C1C(O)CC1C3(C)CCC(O)C(C)(C)C3CCC12C (stereo not shown) [Form I]          6.84

----------
- Assay text: Pharmacokinetics after intravenous administration of CK in rats (10 mg/kg)
- Type: in vivo, Sprague-Dawley rats
- Measurement parameters: male, Sprague-Dawley, rat, plasma, iv, 10 mg/kg, male rats, i.v. 10 mg/kg, 2 h, Mean±SD; read-out: Plasma concentrations of CK
Measure name: concentration at 2 h (ng/mL)

>>> df
                                   molecule  assay_result
0  CC(C)=CCCC(C)(OC1OC(CO)C(O)C(O)C1O)C1CCC2(C)C1C(O)CC1C3(C)CCC(O)C(C)(C)C3CCC12C (stereo not shown)          52.1
